Target: recombinant PTP1B catalytic domain (Homo sapiens)
Construct: Recombinant PTP1B catalytic domain was expressed and purified according to a previous report
Test: PTP1B inhibitory activity assay (pNPP hydrolysis)
Details: pNPP 2 mmol/L, 30 nmol/L recombinant PTP1B, MOPs pH 6.5, 30 °C, absorbance 405 nm; read-out: IC50 against PTP1B
pIC50: −log10 of the molar value.
reported metric: pIC50

* C=C1CCC=C(C)C(OC(C)=O)C(OC(C)=O)C(C(C)C)=CC2C(C)=CCC12 (centres unmarked) [Compound 9, sinulacetate] | 4.29
* CC(=CC=CC(C)(C)O)C1CCC2(C)CCC=C(C)C2C1 (centres unmarked) | 4.19

* * *

Molecular target: recombinant PTP1B catalytic domain (Homo sapiens, UniProt P18031)
Construct: Recombinant PTP1B catalytic domain was expressed and purified according to a previous report; made in house
Sequence (P18031 3-277 limits assumed): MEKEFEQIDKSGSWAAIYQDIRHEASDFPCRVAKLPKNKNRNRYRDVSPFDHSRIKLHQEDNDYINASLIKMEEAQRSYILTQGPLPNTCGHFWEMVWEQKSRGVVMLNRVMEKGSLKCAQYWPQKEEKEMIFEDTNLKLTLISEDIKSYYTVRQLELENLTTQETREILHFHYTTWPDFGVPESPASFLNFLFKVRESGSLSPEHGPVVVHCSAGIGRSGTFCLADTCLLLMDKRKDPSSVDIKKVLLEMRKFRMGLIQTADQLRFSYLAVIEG
Experiment: PTP1B inhibitory activity assay (pNPP hydrolysis)
Format: biochemical
Settings: in vitro, pNPP hydrolysis
Description: Recombinant PTP1B catalytic domain was expressed and purified according to a previous report. The enzymatic activities of the PTP1B catalytic domain were determined at 30 °C by monitoring the hydrolysis of pNPP. The dephosphorylation of pNPP generated product pNP, which was monitored at an absorbance of 405 nm by the EnVision multi label plate reader (Perkin Elmer Life Sciences, Boston, MA). […] The IC50 was calculated with Prism 4 software (Graphpad, San Diego, CA).
reported metric: PTP1B inhibitory activity (in words)

- C=C[C@@]1(C)CC[C@H](/C(C)=C/C=C/C(C)(C)O)C[C@@H]1C(=C)C: inactive
- C=C[C@@]1(C)CC[C@H](/C(C)=C/C=C/C(C)(C)OC)C[C@@H]1C(=C)C: inactive
- CC1=CC=C(C(C)C)C(O)C(O)C(C)=CCCC(C)=CCC1 (centres unmarked): inactive

From: paper PMC5923390
